# Test system: 786-0
# test-protocol: NCI tumour cell line growth inhibition, 48 h
Calls of active or inactive are those of the source. Rule as the data show it: active = GI50 up to about 1.1 µM and inactive = higher.
Reported GI50 values for a set of compounds
measurement-label: GI50

| compound | reading |
| --- | --- |
| CCCCC(=O)c1ccc2ccccc2c1O | > 100 µM (inactive) |
| COC(=O)C1c2c(c3ccccc3n2C(=O)OC)CCN2CCC1C(S(=O)(=O)c1ccccc1)C2=O (stereo not given) | > 100 µM (inactive) |
| NC(=S)N/N=C1\C(=O)N(CCc2ccccc2)C(=O)C1C(=O)NCCc1ccccc1 (stereo not given) | > 100 µM (inactive) |
| O=C(CCc1ccc(O)cc1)NCCc1cccc(OCc2ccccc2)c1 | 40.4 µM (inactive) |
| O=[N+]([O-])c1ccc(-c2nc3cc(Cl)ccc3[nH]2)cc1 | 86.7 µM (inactive) |
| CCc1nc(N)nc(N)c1-c1ccc(Cl)c([N+]#N)c1 | 48.2 µM (inactive) |
| COc1ccc(N2C(N)=C(C#N)C(C#N)(C#N)C2c2cccc([N+](=O)[O-])c2)cc1 (stereo not given) | 14.5 µM (inactive) |
| O=C(NC1CCCCC1NC(c1ccccc1)(c1ccccc1)c1ccccc1)C(=O)NC1CCCCC1NC(c1ccccc1)(c1ccccc1)c1ccccc1 (stereo not given) | 53.7 µM (inactive) |
| COC(=O)[C@H]1N[C@@H](C(=O)OC)C23CCC[C@H]2CC[C@]1(C(OC)OC)C3 | 81.1 µM (inactive) |
| CO/C(=N\N=C\c1cc(OC)ccc1OC)c1ccncc1 | > 10 µM (inactive) |

Data origin, for the record: ChEMBL document CHEMBL1201862
